Assay: gradient 5% acetonitrile 3 min, to 50% in 2 min, to 85% in 15 min, held 3 min, 100 µL/min
Conditions: column: Zorbax Extend-C18 2.1 x 50 mm; eluents: water / acetonitrile, 0.1% formic acid
Parameter class (string): assigned from measured RP-LC retention time. Ranges: lowest (below 700 s), middle (700 s to below 900 s), highest (900 s or more)

compound: O=C(Cn1nc(Cc2ccncc2)c2ccccc2c1=O)Nc1ccc(Cl)cn1
class.label: lowest
//
compound: O=C(NCCc1ccccc1)N1CCN(c2nc3cccnc3n(Cc3ccccc3)c2=O)CC1
class.label: highest
//
compound: COc1ccc2[nH]cc(CCNC(=O)c3ccc(F)cc3)c2c1
class.label: middle
//
compound: CN1CCCN(C(=O)C2CN(S(=O)(=O)c3cccnc3)CC23CCCCC3)CC1 (stereo unspecified)
class.label: lowest
//
compound: Cc1ccc(N2C=C(C(=O)N3CCCCC3)S(=O)(=O)c3ccccc32)cc1C
class.label: highest
//
compound: CCOCCCNC(=O)Nc1c(-c2cccc(C)c2)nc2ccccn12
class.label: middle
//
compound: Cc1nnc(-c2cc(C)n(CC(=O)Nc3ccc(Cl)cc3)c2C)o1
class.label: middle
//
compound: Cc1nc2c(NC(=O)c3ccc(Cl)cc3)cccn2n1
class.label: middle
//
compound: Cn1nc(C(=O)N2CCC(Oc3ccc(-c4noc(C5CC5)n4)cc3)C2)c2ccccc21 (stereo unspecified)
class.label: highest
//
compound: Cc1c(C(=O)NCc2cccnc2)oc2c1C(=O)CC(C)(C)C2
class.label: lowest
//
compound: O=S(=O)(c1cccs1)N1CCc2nc(-c3ccc(Cl)cc3)ncc2C1
class.label: highest
//
compound: Cc1cc(C)cc(Nc2nc(C)cc(=O)n2CC(=O)Nc2cccc(Br)c2)c1
class.label: highest
//
compound: COC(=O)c1c(-c2ccc(Cl)cc2)noc1NCCN1CCOCC1
class.label: lowest
//
compound: COc1ccc(C(=C2C(=O)Nc3ccccc32)c2ccc(OC)cc2)cc1
class.label: highest
//
compound: CCc1ccc(C2=C(C)C(N3CCCN(C(=O)c4ccoc4)CC3)=NS2(=O)=O)cc1
class.label: middle
//
compound: CCC(C)C(NC(=O)c1cc(F)cc(F)c1)C(=O)Nc1nc2ccccc2[nH]1 (stereo unspecified)
class.label: middle
//
compound: O=C(Nc1ccc(O)c(C(=O)O)c1)Oc1ccccc1
class.label: middle
//
compound: O=C(CN1C(=O)COc2ccccc2C1=O)c1cccc([N+](=O)[O-])c1
class.label: middle
//
compound: Cc1nc(OCC(=O)NCc2ccc(N(C)C)cc2)c2c(C)c(C)oc2n1
class.label: lowest
//
compound: Cc1cc(NCC2CCCO2)n2nc(-c3ccc(Cl)cc3)c(C)c2n1 (stereo unspecified)
class.label: middle
//
compound: O=C(Nc1nccs1)c1cn(Cc2ccc(F)cc2)cc2c(=O)n(-c3ccccc3)nc1-2
class.label: highest
//
compound: COc1c(C(=O)Nc2ccc3c(c2)OCO3)sc2ccc(Cl)cc12
class.label: highest
//
compound: O=C(NC1CCCCC1)c1cccc(Nc2c(-c3ccccc3)nc3cnccn23)c1
class.label: middle
